TARGET_OR_SYSTEM: SARS-CoV-2 Spike Protein (RBD) (R319-F541).mFc (SARS-CoV-2)
ASSAY_OVERVIEW: Luminex beads, supernatant

# BINDER, MFI
measured = [
    ("mAb10989 (antibody, V domains shown) VH: QVQLVQSGAEVKKPGASVKVSCKASGYIFTGYYMHWVRQAPGQGLEWMGWINPNSGGANYAQKFQGRVTLTRDTSITTVYMELSRLRFDDTAVYYCARGSRYDWNQNNWFDPWGQGTLVTVSS VL: QSALTQPASVSGSPGQSITISCTGTSSDVGTYNYVSWYQQHPGKAPKLMIFDVSNRPSGVSDRFSGSKSGNTASLTISGLQAEDEADYYCSSFTTSSTVVFGGGTKLTVLG", "19600 MFI"),
]
